System: hedgehog, isoform A (Drosophila melanogaster)
Assay: Hh protein inhibition, biochemical readout – plate reader, single concentration, primary screen (AID 588832);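 further: 0% = neutral control wells and 100% = positive control wells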
Settings: Biochemical plate reader assay, at 30.3 µM
The whole screen tested about 8,000 compounds, of which fewer than 10 were called active. How the calls were made is not given here. A selection follows.
Outcome codes: 1 (active), 0 (inactive)

INSERT INTO results (compound, categorylabel) VALUES
  ('CCCc1cc(=O)oc2cc(OC(C)C(=O)NCC3CCC(C(=O)O)CC3)c(Cl)cc12 (stereo not drawn)', 0),
  ('Cc1ccc(C)c(NC(=O)CSc2nc3ccccc3nc2N2CCOCC2)c1', 0),
  ('Cn1cc(S(=O)(=O)N2CCc3ccccc32)cc1C(=O)NC1CCCCC1', 0),
  ('CCOC(=O)N1CCN(c2cc(=O)n(-c3ccc(Br)cc3)c(=O)[nH]2)CC1', 0),
  ('CCOC(=O)N1CCc2c(sc(NC(=O)c3ccc(S(=O)(=O)N4CCCC4)cc3)c2C#N)C1', 0),
  ('COc1cccc(-c2nc(C(=O)NCC3CCCO3)cc3c2[nH]c2ccccc23)c1 (stereo not drawn)', 0),
  ('Nc1nonc1-n1nnc(C(=O)N/N=C/c2ccc(O)cc2)c1CN1CCCCCC1', 0),
  ('O=C(Cn1cnc2c(nnn2Cc2ccccc2)c1=O)NCc1ccco1', 0),
  ('C[C@H](NC(=O)[C@H]1N2C(=O)c3ccccc3C2SC1(C)C)C(=O)N1CCC[C@H]1CO (stereo partly drawn)', 0),
  ('CCc1ccc(NC(=O)CSc2nnc(Cn3c(=O)sc4ccccc43)n2C)cc1', 0),
  ('CC(=O)Nc1cccc(NS(=O)(=O)c2cn(C)c(=O)n(C)c2=O)c1', 0),
  ('Cc1cc2ccccc2n1CCNC(=O)C(C)(C)C', 1),
  ('COC(=O)C1=C(C)n2cnnc2NC1c1ccc(Cl)cc1 (stereo not drawn)', 0),
  ('Cn1c(Cn2c(=O)sc3ccccc32)nnc1SCC(=O)Nc1cccc(Cl)c1', 0),
  ('COc1cc2c(cc1OC)CN(C(=O)c1ccc3[nH]c(C)c(C)c3c1)CC2', 0),
  ('CCN1C(=O)c2ccccc2S(=O)c2ccc(C(=O)NCCCN3CCCC3=O)cc21 (stereo not drawn)', 0),
  ('CC(=O)NCCn1c(C)cc2ccccc21', 0),
  ('CC1Cc2nc(SCC(=O)N3CCCc4ccccc43)n(C)c(=O)c2S1 (stereo not drawn)', 0),
  ('CC1CCCN(S(=O)(=O)c2ccc3c(c2)C(C)(C)C(=O)N3C)C1 (stereo not drawn)', 0),
  ('O=C(NCc1cn2ccsc2n1)c1c(F)cccc1Cl', 0),
  ('CCOc1ccc(C2C(C(=O)Nc3ccc(F)cc3)=C(C)Nc3nc(CCCO)nn32)cc1 (stereo not drawn)', 0),
  ('O=C(NCCN1CCCC1)c1ccc2c(c1)N(Cc1ccc(F)cc1)C(=O)c1ccccc1S2=O (stereo not drawn)', 0),
  ('Cc1ccccc1C(=O)Nc1nnc(S(=O)(=O)N2CCCCC2)s1', 0),
  ('CC1(C)Cc2c(C#N)c(NC3CCCCC3)nc(-c3ccco3)c2CO1', 0),
  ('COc1ccc(NC(=O)c2cc(CC(C)C)on2)cc1OC', 0),
  ('CC(C)COC(=O)C1C2C=CC3(CN(C4CCCC4)C(=O)C13)O2 (stereo not drawn)', 0),
  ('COC(=O)C1(Cc2ccc(O)c(CC3OC3(C)C)c2)OC(=O)C(O)=C1c1ccc(O)cc1 (stereo not drawn)', 0),
  ('C/C=C/c1cc(OC)c2c(c1)[C@H](C)[C@@H](c1ccc(O)c(OC)c1)O2', 0),
  ('COc1ccccc1CNC(=O)[C@H](Cc1c[nH]c2ccccc12)NC(=O)[C@@H]1Cc2ccccc2CN1', 0),
  ('COc1ccc(-c2nc(C(=O)NCCCN3CCOCC3)cc3c2[nH]c2ccccc23)cc1OC', 0),
  ('CCOC(=O)c1c(C)c(-c2ccccc2)n(CC(=O)N2CCCC2)c1C', 0),
  ('CC1CCCN(C(c2ccccc2)c2sc3ncnn3c2O)C1 (stereo not drawn)', 0),
  ('O=C(COc1ccc2c(-c3ccccc3)cc(=O)oc2c1)N1C[C@H]2C[C@@H](C1)c1cccc(=O)n1C2', 0);

----------
Each item that follows carries a reported inhibition.
Test system: hedgehog, isoform A (Drosophila melanogaster)
Assay: Hh protein inhibition, biochemical readout – plate reader, single concentration, primary screen (AID 588832);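 further: 0% = neutral control wells and 100% = positive control wells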
Details: Biochemical plate reader assay, at 30.3 µM, stronger effect = higher value
The whole screen tested about 8,000 compounds, of which fewer than 10 were called active. Not all results are given here.
readoutLabel: inhibition (%)

INSERT INTO assay_data (compound, targetorsystem, unitstring, experimentalvalue) VALUES
  ('CCCNC(=O)C1=C(C)C(=O)OC12CCC(C)CC2 (stereo not given)', 'hedgehog, isoform A (Drosophila melanogaster)', '%', 9.55),
  ('O=C(COc1ccc2c(c1)oc(=O)c1ccccc12)N[C@@H](Cc1ccccc1)C(=O)O', 'hedgehog, isoform A (Drosophila melanogaster)', '%', 0),
  ('O=C(COC(=O)C1CC(=O)N(C2CCCCC2)C1)c1ccc(F)cc1 (stereo not given)', 'hedgehog, isoform A (Drosophila melanogaster)', '%', 15),
  ('CCOc1ccc(NC(c2ccccn2)c2oc(CO)cc(=O)c2O)cc1 (stereo not given)', 'hedgehog, isoform A (Drosophila melanogaster)', '%', 1.85),
  ('CC(CCc1ccccc1)NC(=O)C1CCN(C(=O)c2sccc2-n2cccc2)CC1 (stereo not given)', 'hedgehog, isoform A (Drosophila melanogaster)', '%', 3.57);

----------
Test system: hedgehog, isoform A (Drosophila melanogaster)
Experiment: Hh protein inhibition, biochemical readout – plate reader, single concentration, primary screen (AID 588832);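 further: 0% = neutral control wells and 100% = positive control wells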
Settings: Biochemical plate reader assay, at 30.3 µM, stronger effect = higher value
The campaign covered roughly 8,000 compounds. Fewer than 10 were called active. The list is a sample of the results.
Use 10% as the dividing line for inhibition, with the line itself on the 1 (yes) side and lower values as 0 (no).

INSERT INTO results (compound, categorylabel) VALUES
  ('COc1ccc(CNC(=O)COc2cc3c(c4oc(=O)cc(C)c24)CCC(C)(C)O3)cc1OC', '0 (no)'),
  ('Cc1cccc(-n2c(CNC(=O)c3ccccc3)nnc2SCC(=O)Nc2nccs2)c1', '1 (yes)'),
  ('CC(=O)Oc1cc(O)c2c(=O)c(OC(C)=O)c(-c3ccc(OC(C)=O)c(OC(C)=O)c3)oc2c1', '1 (yes)'),
  ('CCOC(=O)C(C)n1cnc2c(nnn2-c2ccc(F)cc2)c1=O (configuration not stated)', '0 (no)'),
  ('COc1cc2cccc(OC)c(=O)c2c(OC)c1OC', '0 (no)'),
  ('C=CCn1cc(C(=O)NCCCOC)c(=O)c2cc(S(=O)(=O)N3CCC(C)CC3)ccc21', '1 (yes)'),
  ('CCOC(=O)c1ccc(NC(=O)COc2cc(=O)n(CC)c3ccccc23)cc1', '0 (no)'),
  ('COc1ccc(CNS(=O)(=O)c2cc3c(cc2Cl)NC(=O)CO3)cc1', '0 (no)'),
  ('Cc1ccc(Cl)cc1N1CCN(C(=O)COc2ccc(S(=O)(=O)NC(C)C)cc2)CC1', '0 (no)'),
  ('COc1ccccc1NC(=O)NCCCN1CCN(c2cccc(Cl)c2)CC1', '0 (no)'),
  ('COc1ccc(NC(=O)NCCCN2CCN(c3cc(C)ccc3C)CC2)cc1', '0 (no)'),
  ('NC(=O)c1cccc2c1C(=O)N(C1CCCCC1)C2', '0 (no)'),
  ('O=C(Cn1cc2c(n1)CCCC2)NCCCN1CCN(Cc2ccccc2)CC1', '0 (no)'),
  ('CCOc1ccc(C(=O)c2cnc3ccccc3c2N2CCN(CC)CC2)cc1', '1 (yes)'),
  ('O=C(CN1CCOc2ccccc21)NC1CCCCCCC1', '1 (yes)'),
  ('COc1cc(OC)c(NS(=O)(=O)c2coc(C(N)=O)c2)cc1Cl', '1 (yes)'),
  ('CCC1=Nc2cc(C(=O)O)ccc2Sc2ccccc21', '0 (no)'),
  ('CCOc1ccc(NC(=O)CSc2nc3ccccc3nc2N2CCOCC2)cc1', '0 (no)'),
  ('Cc1ccc(C(=O)NCCSc2c(C)[nH]c3ccccc23)cc1[N+](=O)[O-]', '0 (no)'),
  ('CC1C(=O)Nc2ccc(S(=O)(=O)N3CCN(c4cccc(Cl)c4)CC3)cc2NC1=O (configuration not stated)', '0 (no)'),
  ('CCN(Cc1ccccc1)S(=O)(=O)c1cc(C(=O)OC)n(C)c1', '0 (no)');

----------
Each item that follows carries a reported inhibition.
Tested on: hedgehog, isoform A (Drosophila melanogaster)
Test: Hh protein inhibition, biochemical readout – plate reader, single concentration, primary screen (AID 588832);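 further: 0% = neutral control wells and 100% = positive control wells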
Conditions: Biochemical plate reader assay, at 30.3 µM, stronger effect = higher value
Out of some 8,000 compounds screened, fewer than 10 were called active. Not all results are given here.
readoutLabel: inhibition (%)

INSERT INTO assay_data (compound, experimentalvalue) VALUES
  ('Cn1cccc1Cc1nnc(SCC(=O)Nc2ccc(F)cc2)n1CCc1ccccc1', 17.4),
  ('Cc1csc2ncc(C(=O)NC(C)c3ccccc3)c(=O)n12 (stereo unspecified)', 7.24),
  ('CCOCCn1c(SCc2ccc(F)cc2)nc2c1c(=O)[nH]c(=O)n2C', -3.67),
  ('C[C@@H]1Cc2c(O)c(O)cc(O)c2C(=O)O1', 4.89),
  ('CCOc1ccc(-n2c(SCC(=O)N3CCc4ccccc43)nnc2-c2c[nH]c3ccccc23)cc1', 13.3),
  ('CCc1nn(CC(=O)N2CCN(C)CC2)c(=O)c2cccn12', 5.06),
  ('CCOc1ccc(NC(=O)c2cccc(NC3=NC4CS(=O)(=O)CC4S3)c2)cc1 (stereo unspecified)', 5.12),
  ('O=C(Nc1ccc(F)cc1F)C1CCN(c2ncnc3c2sc2cccc(F)c23)CC1', 7.02),
  ('O=C1C=C(O)c2cccc(O)c2C1=O', 9.84),
  ('Cn1c(=O)cc(N2CCc3ccccc32)[nH]c1=O', 1.79),
  ('O=C1C=C(O)c2c(O)cc(O)c(O)c2C1=O', 93.1),
  ('Cc1cccc(N2CCN(C(=O)CCC(=O)N3CC(C)Oc4ccc(C)cc43)CC2C)c1 (stereo unspecified)', 5.06),
  ('C=CC[C@]12C[C@@H](OC)C(=O)C=C1O[C@@H](c1ccc(OC)c(OC)c1)[C@H]2C', 8.62),
  ('Cc1cc2cc(CNC(=O)c3ccc(S(=O)(=O)N4CCCCC4)cc3)ccc2[nH]1', 5.36),
  ('Cc1c(C(=O)NNc2cc(=O)n(C)c(=O)n2C)cccc1[N+](=O)[O-]', 1.72),
  ('Cc1cc(Nc2ccc(C(C)C)cc2)n2ncnc2n1', 6.72),
  ('CSC1=NCCN1C(=O)c1ccc(S(=O)(=O)N2CCCC2)cc1', -1.85),
  ('COc1ccc(NC(=O)c2cc(S(=O)(=O)N3CCc4ccccc43)cn2C)cc1', -3.51),
  ('Cc1[nH]c2ccccc2c1SCC(=O)N1CCCc2ccccc21', 1.79),
  ('C=C1CCCC2OC(CC3=CC4/C(C)=C/CC(C)CC(/C=C(\C)C(O)C5CC(O)C(O)C(CCC(O)/C=C/C(C)=C/CCC6=NCCC(C3)C64C)O5)OC(=O)CC3OC(C(O)C1)C(O)C3O)CC(O)C2O (stereo unspecified)', 5.17),
  ('Cn1c(=O)c2c(SC3CCCC3)nc(C3CC3)nc2n(C)c1=O', 9.74);
